Assay: qHTS assay for identifying genotoxic compounds that show differential cytotoxicity against isogenic chicken DT40 cell lines with known DNA damage response pathways - wild type cell line (AID 743012); also: nearly all actives have a fitted effect of over 60% in size
Conditions: DT40 wild type chicken cells viability, CellTiter-Glo, 40 h; series mostly up to 68.4 µM
Results filed as inconclusive are left out. Activity calls are given as the source filed them. Calls follow the shape of the dose curve; as a rule, active = well fitted cell-killing curve with a large enough effect in the repeat runs; inconclusive = weak or mixed curves, or effect the other way; inactive = no such curve, though single readings can be large or run the other way.
# valid calls are active, inactive; nothing else

### Prompt Called result for `CCOc1ccc2ccccc2c1C(=O)N[C@@H]1C(=O)N2[C@@H]1SC(C)(C)[C@@H]2C(=O)O`
### Response inactive

### Prompt // param item: CCCCCCC1CCCC(=O)O1 (configuration not stated) ; yields the recorded call
### Response inactive

### Prompt Could you please tell me the result logged for `CC1(C)CC(O)CC(C)(C)N1` in this assay?
### Response inactive

### Prompt Status in this test for `COc1c(C)c2c(c(O)c1C/C=C(\C)CCC(=O)OCCN1CCOCC1)C(=O)OC2` ?
### Response active

### Prompt Could you kindly confirm the outcome this assay logged for `CN(C)Cc1cc(C(C)(C)C)c(O)c(C(C)(C)C)c1` ?
### Response active

### Prompt What classification did CC(=O)Oc1cc2c(s1)CCN(C(C(=O)C1CC1)c1ccccc1F)C2 (configuration not stated) end up with in this test?
### Response inactive

### Prompt Name the outcome recorded for `Cc1ccc(O)c(N)c1` in the assay.
### Response active

### Prompt Test call, this compound: `CCc1oc2ccccc2c1C(=O)c1cc(I)c(O)c(I)c1`
### Response active

### Prompt Hello, I am checking results. What call was entered for `O=[N+]([O-])c1ccc(O)cc1C(F)(F)F` ?
### Response active

### Prompt Hi, sorry to bother you, what did the test record for `C#C[C@]1(O)CC[C@H]2[C@@H]3[C@H](C)CC4=C(CCC(=O)C4)[C@H]3CC[C@@]21C` ?
### Response active

### Prompt # outcome recorded in this test, key = `Cc1cc(=O)oc2cc(O)cc(O)c12`
### Response inactive

### Prompt // param item: CCCCCCOC(=O)C(C)CC (configuration not stated) ; yields the recorded call
### Response inactive

### Prompt Recorded test outcome, item `O=c1[nH]c2ccccc2n1CCCN1CCN(C(c2ccccc2)c2ccccc2)CC1`
### Response active

### Prompt Tell me the recorded outcome of this test for `Cc1ccc(-c2ccccc2)cc1` .
### Response inactive

### Prompt Field: outcome | Entry: `C=CC(=O)OCCOC(=O)C=C`
### Response active

### Prompt Could you check what this test reported for `Cc1nc2n(c(=O)c1CCN1CCC(c3noc4cc(F)ccc34)CC1)CCCC2` ?
### Response active

### Prompt Answer briefly: the call reported for `CCc1cccc(CC)c1NC(=O)CN(CC(=O)O)CC(=O)O` in this assay.
### Response inactive

### Prompt Recorded call for CC(C)(c1cc(Br)c(OCC(Br)CBr)c(Br)c1)c1cc(Br)c(OCC(Br)CBr)c(Br)c1 (configuration not stated) ?
### Response inactive

### Prompt Which outcome did this test record for the compound `COc1ccc(NC(=O)CC(C)=O)cc1` ?
### Response inactive

### Prompt Write down the call the test reported for this compound. Item: OC12N=C(c3ccccc3)SC1Cc1cc(Cl)ccc12 (configuration not stated)
### Response active

### Prompt What outcome does the record of this test show for `CCC(=O)OC(=O)CC` ?
### Response inactive

### Prompt Hi, do you know how `FC(F)(F)c1cccc(Cl)c1` came out in this test?
### Response inactive

### Prompt Hi team, can someone confirm the assay call for OC1CCCc2ccccc21 (configuration not stated) ?
### Response inactive

### Prompt Given `CCCCCCCCCCCCOCCOCCOCCOCCOCCOCCOCCOCCOCCO` , state the outcome it received in this test.
### Response active

### Prompt Check the results log: what was the call for `Cc1ccc(C)cc1` ?
### Response inactive

### Prompt In this assay, the call recorded for `CCO[Si](OCC)(OCC)OCC` was what?
### Response inactive

### Prompt Outcome logged for `CC(C)CCOC(=O)/C=C/c1ccccc1` in this assay:
### Response inactive
